The measured values listed here are drawn from PubChem BioAssay AID1903.

Assignment: determine reported inhibition for the given compounds.
target: Large T antigen (Simian virus 40) (UniProt P03070); assay: SV40 large T antigen inhibitors, biochemical (AID 1903); details: SV40 large T antigen ATPase/helicase inhibition assay; at 20 µM; active compounds read high
Sequence (P03070 whole entry, looked up): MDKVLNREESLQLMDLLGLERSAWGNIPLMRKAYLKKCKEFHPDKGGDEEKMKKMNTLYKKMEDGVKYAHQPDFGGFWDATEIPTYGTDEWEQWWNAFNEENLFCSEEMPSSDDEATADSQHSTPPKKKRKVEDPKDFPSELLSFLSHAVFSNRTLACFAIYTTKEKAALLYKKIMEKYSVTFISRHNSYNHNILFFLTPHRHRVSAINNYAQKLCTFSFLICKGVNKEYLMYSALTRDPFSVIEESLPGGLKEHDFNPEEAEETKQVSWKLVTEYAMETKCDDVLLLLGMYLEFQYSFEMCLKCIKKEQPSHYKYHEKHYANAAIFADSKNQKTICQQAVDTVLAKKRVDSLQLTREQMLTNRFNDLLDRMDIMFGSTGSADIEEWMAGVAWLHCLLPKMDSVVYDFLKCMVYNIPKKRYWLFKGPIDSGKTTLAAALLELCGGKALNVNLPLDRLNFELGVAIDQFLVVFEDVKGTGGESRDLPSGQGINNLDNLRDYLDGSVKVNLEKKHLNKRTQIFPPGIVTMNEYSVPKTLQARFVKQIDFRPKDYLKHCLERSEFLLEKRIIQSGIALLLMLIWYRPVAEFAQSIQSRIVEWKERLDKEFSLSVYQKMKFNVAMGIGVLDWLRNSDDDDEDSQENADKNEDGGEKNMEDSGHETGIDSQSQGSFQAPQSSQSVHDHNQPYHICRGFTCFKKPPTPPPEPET
Among all 310,000 compounds or so, about 1,200 (0.39%) were called active. A selection follows. Results with a measured potency or affinity are listed apart.

Prompt: # lookup: inhibition of Cc1[nH]c2ccccc2c1C(=O)COC(=O)c1cccc(S(=O)(=O)N2CCCCC2)c1
Completion: 7.32% (inactive)

Prompt: # input compound: COc1cc(/C=N/N2C(=O)CSC2=S)ccc1O ; wanted: its inhibition
Completion: 37.9% (inactive)

Prompt: Recorded inhibition for COc1cc(/C=N/N2CCN(Cc3ccc(Cl)cc3)CC2)cc(Br)c1O , please?
Completion: 10.9% (inactive)

Prompt: inhibition for O=C(O)C1CC(c2ccccc2)=Nc2ccccc2S1 (centres undefined) ?
Completion: 19.3% (inactive)
